Reference for the values: paper PMC12526154

- protocolNotes: Resazurin reduction cytotoxicity assay, THP-1 macrophages
- studyConditions: human, THP-1-derived macrophages (PMA-differentiated)
experimentalEndpoint: CC50 at 24 h

{"compoundStructure": "CC(C)=CCC[C@](C)(O)[C@@H]1CC=C(C)CC1", "observedValue": "> 250 µM"}

====

Listed here are molecules together with their documented CC50 at 24 h.
- protocolNotes: Resazurin reduction cytotoxicity assay, THP-1 macrophages
- studyConditions: human

{"molecule": "C=Cc1c(C)c2cc3nc(c4c5[nH]c(cc6nc(cc1[nH]2)C(C)=C6CC)c(C)c5C(=O)[C@@H]4C(=O)OC)[C@@H](CCC(=O)O)[C@@H]3C [Pheophorbide A]", "measureUnit": "µM", "CC50 at 24 h": 1.4}
{"molecule": "COc1cc2oc(-c3ccc(O)c(O)c3)cc(=O)c2c(O)c1OC [Cirsiliol]", "measureUnit": "µM", "CC50 at 24 h": 11.2}
{"molecule": "COc1c(O)cc2oc(-c3ccc(O)cc3)cc(=O)c2c1O [Hispidulin]", "measureUnit": "µM", "CC50 at 24 h": 21.1}
{"molecule": "C/C1=C\\CC(C)(C)/C=C/C(=O)/C(C)=C/CC1 [Zerumbone]", "measureUnit": "µM", "CC50 at 24 h": 51.6}

====

Listed here are compounds together with their documented CC50 at 24 h.
- protocolNotes: Resazurin reduction cytotoxicity assay, IMR90
- studyConditions: human, IMR-90 fetal lung fibroblasts
experimentalEndpoint: CC50 at 24 h (µM)

{"compoundStructure": "C/C1=C\\CC(C)(C)/C=C/C(=O)/C(C)=C/CC1", "measureUnit": "µM", "qualifierOperator": "=", "observedValue": 79.8}
{"compoundStructure": "COc1cc2oc(-c3ccc(O)c(O)c3)cc(=O)c2c(O)c1OC", "measureUnit": "µM", "qualifierOperator": "=", "observedValue": 108}
{"compoundStructure": "CC(C)=CCC[C@](C)(O)[C@@H]1CC=C(C)CC1", "measureUnit": "µM", "qualifierOperator": ">", "observedValue": 250}

====

- System: Mtb H37Ra strain (ATCC 25177)
- protocolNotes: Broth microdilution growth inhibition assay against Mtb H37Ra
- Format: cell-based, Mycobacterium tuberculosis
- studyConditions: Mycobacterium tuberculosis; pure commercial compounds; 90% inhibition of Mtb H37Ra growth; mean ± SD; read-out: MIC90
Listed here are compounds together with their documented MIC90.
experimentalEndpoint: MIC90

{"compound": "COc1ccc(-c2oc3cc(OC)c(OC)c(O)c3c(=O)c2OC)cc1O", "testedSystem": "Mtb H37Ra strain (ATCC 25177)", "observedValue": "> 200 µM"}
{"compound": "CC1(C)C[C@H](O)C[C@@]2(C)OC(=O)C=C12 [Loliolide]", "testedSystem": "Mtb H37Ra strain (ATCC 25177)", "observedValue": "> 200 µM"}
{"compound": "COc1c(O)cc2oc(-c3ccc(O)cc3)cc(=O)c2c1O", "testedSystem": "Mtb H37Ra strain (ATCC 25177)", "observedValue": "162 µM"}
{"compound": "CC(C)=CCC[C@](C)(O)[C@@H]1CC=C(C)CC1", "testedSystem": "Mtb H37Ra strain (ATCC 25177)", "observedValue": "> 200 µM"}
{"compound": "COc1cc(C2c3c(cc(OC)c(O)c3OC)CC(CO)C2CO)cc(OC)c1O (stereo not shown)", "testedSystem": "Mtb H37Ra strain (ATCC 25177)", "observedValue": "> 200 µM"}
{"compound": "CC[C@@H](CO)NCCN[C@@H](CC)CO [Ethambutol, reference compound]", "testedSystem": "Mtb H37Ra strain (ATCC 25177)", "observedValue": "17.3 µM"}
{"compound": "C=Cc1c(C)c2cc3nc(c4c5[nH]c(cc6nc(cc1[nH]2)C(C)=C6CC)c(C)c5C(=O)[C@@H]4C(=O)OC)[C@@H](CCC(=O)O)[C@@H]3C [Pheophorbide A]", "testedSystem": "Mtb H37Ra strain (ATCC 25177)", "observedValue": "17 µM"}
{"compound": "COc1cc2oc(-c3ccc(O)c(O)c3)cc(=O)c2c(O)c1OC", "testedSystem": "Mtb H37Ra strain (ATCC 25177)", "observedValue": "> 200 µM"}
{"compound": "C/C1=C\\CC(C)(C)/C=C/C(=O)/C(C)=C/CC1", "testedSystem": "Mtb H37Ra strain (ATCC 25177)", "observedValue": "> 200 µM"}
{"compound": "C=C1CC[C@H]2O[C@]2(C)CC[C@@H]2[C@@H]1CC2(C)C [Caryophyllene oxide]", "testedSystem": "Mtb H37Ra strain (ATCC 25177)", "observedValue": "> 200 µM"}
